Biological target: T1, recombinant human Siglec-15-his protein (Bonopusbio) (human, UniProt Q6ZMC9 20-263)
T1 construct: Bought (CW37-50 ug in the ELISA; the SPR paragraph prints CW70-50 ug); whole entry named; also called recombinant human Siglec-15 protein
T1 sequence: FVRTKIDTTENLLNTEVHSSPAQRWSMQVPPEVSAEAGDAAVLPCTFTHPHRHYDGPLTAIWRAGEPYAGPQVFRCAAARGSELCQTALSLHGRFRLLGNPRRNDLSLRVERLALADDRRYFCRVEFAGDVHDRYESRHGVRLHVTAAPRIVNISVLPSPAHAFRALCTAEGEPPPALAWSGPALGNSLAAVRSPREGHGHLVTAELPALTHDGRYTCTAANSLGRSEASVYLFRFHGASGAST
Assay: SPR (Biacore T200), antibody on CM5 chip, Siglec-15-his as analyte
Would you kindly list kon for each of these binders?
Answers are plain numbers, in M⁻¹ s⁻¹.

Illustrative cases are given below, each with its answer.
{"binder": "S15B1-VH2 + VL2 (antibody, V domains shown, Humanized S15B1; also called humanized S15B1 VH2+VL2; huS15B1) VH: QVQLVQSGAEVKKPGASVKVSCKASGYAFSSSWMNWVRQAPGQGLEWIGRIYPGHGETNYNGKFKDRVTMTADTSTSTVYMELSSLRSEDTAVYFCARVDNSDPYYFDYWGQGTTVTVSS VL: DIVLTQSPASLAVSPGQRATITCRASKSVSTSGYSYMHWYQQKPGQPPKLLIYLASNLESGVPARFSGSGSGTDFTLTINPVEAEDTATYYCQHGRELPFTFGGGTKLEIK", "uom": "M⁻¹ s⁻¹", "kon": "3.44e+06"}
{"binder": "S15B1 (antibody, V domains shown, Mouse hybridoma monoclonal antibody ('parental mouse S15B1'); also called clone S15B1; S15B1-VH + VL (Parental)) VH: QVQLQQSGPELVKPGASVKISCKASGYAFSSSWMNWVKQRPGKGLEWIGRIYPGHGETNYNGKFKDKATVTADKSSSTTYMQLSSLTSEDSAVYFCARVDNSDPYYFDYWGQGTTLTVSS VL: DIVLTQSPASLAVSLGQRATISCRASKSVSTSGYSYMHWYQQKPGQPPKLLIYLASNLESGVPARFSGSGSGTDFTLNIHPVEEEDAATYYCQHGRELPFTFGSGTKLEIK", "uom": "M⁻¹ s⁻¹", "kon": "4.46e+06"}
{"binder": "S15B1-VH2 + VL1 (antibody, V domains shown, Humanized S15B1; also called humanized S15B1 VH2+VL1; huS15B1) VH: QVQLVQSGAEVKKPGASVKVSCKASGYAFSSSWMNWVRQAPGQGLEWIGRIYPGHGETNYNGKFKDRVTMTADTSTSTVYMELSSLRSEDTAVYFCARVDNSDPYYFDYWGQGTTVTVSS VL: DIVLTQSPASLAVSPGQRATITCRASKSVSTSGYSYMHWYQQKPGQPPKLLIYLASNLESGVPARFSGSGSGTDFTLTINPVEAEDTANYYCQHGRELPFTFGGGTKLEIK", "uom": "M⁻¹ s⁻¹", "kon": "3.8e+06"}
{"binder": "S15B1-VH4 + VL1 (antibody, V domains shown, Humanized S15B1; also called humanized S15B1 VH4+VL1; huS15B1) VH: QVQLVQSGAEVKKPGASVKVSCKASGYAFSSSWMNWVKQAPGQGLEWIGRIYPGHGETNYNGKFKDRATMTADKSTSTVYMELSSLRSEDTAVYFCARVDNSDPYYFDYWGQGTTVTVSS VL: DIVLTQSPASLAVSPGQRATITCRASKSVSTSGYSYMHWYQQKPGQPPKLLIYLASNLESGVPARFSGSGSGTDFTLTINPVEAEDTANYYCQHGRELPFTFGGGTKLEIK", "uom": "M⁻¹ s⁻¹", "kon": "4.1e+06"}

Let us move to another entry and its kon.
**Query** Name the recorded kon of the item S15B1-VH3 + VL1 (antibody, V domains shown, Humanized S15B1; also called humanized S15B1 VH3+VL1; huS15B1) VH: QVQLVQSGAEVKKPGASVKVSCKASGYAFSSSWMNWVKQAPGQGLEWIGRIYPGHGETNYNGKFKDRATMTADTSTSTVYMELSSLRSEDTAVYFCARVDNSDPYYFDYWGQGTTVTVSS VL: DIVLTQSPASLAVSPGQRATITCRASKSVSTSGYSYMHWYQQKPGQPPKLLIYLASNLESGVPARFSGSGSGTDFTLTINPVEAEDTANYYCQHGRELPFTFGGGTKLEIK in your answer.
**Result** 3.73e+06
